assay: soluble on expression in E. coli; label from the status in PepcDB or PDB records
readout.label: soluble on expression in E. coli

TPVSEKQLAEVVANTVTPLMKAQSVPGMAVAVIYQGKPHYYTFGKADIAANKPVTPQTLFELGSISKTFTGVLGGDAIARGEISLDDPVTRYWPQLTGKQWQGIRMLDLATYTAGGLPLQVPDEVTDNASLLRFYQNWQPQWKPGTTRLYANASIGLFGALAVKPSGMPYEQAMTTRVLKPLKLDHTWINVPKAEEAHYAWGYRDGKAVRAVRVSPGMLDAQAYGVKTNVQDMANWVMANMAPENVADASLKQGIALAQSRYWRIGSMYQGLGWEMLNWPVEANTVVEGSDSKVALAPLPVAEVNPPAPPVKASWVHKTGSTGGFGSYVAFIPEKQIGIVMLANTSYPNPARVEAAYHILEALQ | soluble
MAAPGPALCLFDVDGTLTAPRQKITKEMDDFLQKLRQKIKIGVVGGSDFEKVQEQLGNDVVEKYDYVFPENGLVAYKDGKLLCRQNIQSHLGEALIQDLINYCLSYIAKIKLPKKRGTFIEFRNGMLNVSPIGRSCSQEERIEFYELDKKENIRQKFVADLRKEFAGKGLTFSIGGQISFDVFPDGWDKRYCLRHVENDGYKTIYFFGDKTMPGGNDHEIFTDPRTMGYSVTAPEDTRRICELLFS | soluble
